# IC50 listing for each entry below
# Test system: isolated guinea pig intestine (BaCl2)
# Protocol details: spasmolytic action against barium chloride on the isolated guinea pig intestine
# Conditions used: Cavia porcellus; barium chloride 10^-4 mg/ml; read-out: Spasmolytic action against BaCl2 (ED50)
Structures can show the parent of a compound that is named as a salt.

Use the examples below as a reference point.
O=C(C1Cc2ccccc2O1)N1CCN(Cc2ccccc2)CC1 (stereo not drawn): 0.3 mg/L
O=C(c1cc2ccccc2o1)N1CCN(Cc2ccccc2)CC1 [Compound 1, N-Benzyl-coumarillic acid piperazide]: 1 to 10 mg/L
O=C(c1cc2ccccc2o1)N1CCN(Cc2ccc(Cl)cc2)CC1: 1 to 10 mg/L
CC1OCCCC1C(=O)N1CCN(Cc2ccccc2)CC1 (stereo not drawn): > 10 mg/L
CC1=C(C(=O)N2CCN(Cc3ccc(Cl)c(Cl)c3)CC2)CCCO1: > 10 mg/L

Let's switch to this compound now.
# IC50 of CN(C)CCCN1c2ccccc2CCc2ccccc21 [Imipramine, hydrochloride, reference compound] = 0.1 to 1 mg/L
